testTarget: purified bovine liver MTP (Bos taurus)
Construct: purified bovine liver MTP; from tissue; host or cells: bovine liver
Sequence (P55156 19-887 limits assumed): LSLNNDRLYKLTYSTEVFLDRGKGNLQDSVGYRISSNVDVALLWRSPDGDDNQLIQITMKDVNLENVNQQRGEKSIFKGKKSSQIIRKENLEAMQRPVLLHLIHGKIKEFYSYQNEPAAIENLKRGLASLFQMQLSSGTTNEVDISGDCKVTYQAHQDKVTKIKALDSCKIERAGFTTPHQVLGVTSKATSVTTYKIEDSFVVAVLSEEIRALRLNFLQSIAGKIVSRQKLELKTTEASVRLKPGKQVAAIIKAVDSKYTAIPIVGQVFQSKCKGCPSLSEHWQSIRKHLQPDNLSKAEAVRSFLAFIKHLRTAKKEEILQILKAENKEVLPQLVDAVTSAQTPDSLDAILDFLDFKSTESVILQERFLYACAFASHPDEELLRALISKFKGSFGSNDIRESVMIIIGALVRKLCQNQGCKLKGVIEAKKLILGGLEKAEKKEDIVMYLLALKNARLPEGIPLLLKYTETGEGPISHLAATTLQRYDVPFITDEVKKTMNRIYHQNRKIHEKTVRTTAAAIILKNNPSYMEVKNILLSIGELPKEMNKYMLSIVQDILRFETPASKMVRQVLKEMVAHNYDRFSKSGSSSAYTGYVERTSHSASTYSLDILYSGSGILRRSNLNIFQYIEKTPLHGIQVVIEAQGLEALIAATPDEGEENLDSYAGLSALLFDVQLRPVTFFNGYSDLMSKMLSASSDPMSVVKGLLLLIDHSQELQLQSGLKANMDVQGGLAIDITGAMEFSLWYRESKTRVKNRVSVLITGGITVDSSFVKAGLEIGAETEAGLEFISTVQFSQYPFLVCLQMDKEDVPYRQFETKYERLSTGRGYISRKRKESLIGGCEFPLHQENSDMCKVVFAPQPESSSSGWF
Sequence (P05307 21-510 partner): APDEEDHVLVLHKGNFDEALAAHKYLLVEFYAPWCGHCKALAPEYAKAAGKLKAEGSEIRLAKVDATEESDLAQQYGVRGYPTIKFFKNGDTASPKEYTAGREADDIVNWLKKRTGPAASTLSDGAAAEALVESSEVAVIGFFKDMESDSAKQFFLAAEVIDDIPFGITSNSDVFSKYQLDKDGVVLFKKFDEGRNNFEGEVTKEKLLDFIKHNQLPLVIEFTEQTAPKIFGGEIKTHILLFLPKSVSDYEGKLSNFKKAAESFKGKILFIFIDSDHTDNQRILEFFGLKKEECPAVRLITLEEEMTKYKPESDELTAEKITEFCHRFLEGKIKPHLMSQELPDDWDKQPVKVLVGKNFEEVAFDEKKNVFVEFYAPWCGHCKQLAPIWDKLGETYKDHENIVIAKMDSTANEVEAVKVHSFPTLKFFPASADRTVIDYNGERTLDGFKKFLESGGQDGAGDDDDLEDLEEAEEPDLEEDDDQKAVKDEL
experimentSummary: Fluorescence triglyceride (NBD-TG) transfer activity assay of MTP
Assay type: biochemical
conditionsUsed: dose-dependent inhibition, FIG. 5A
property: pIC50
Quick note: pIC50 values are minus log10 of concentrations in mol/L.

What value of measured pIC50 is listed for O=C(Nc1ccc2c(c1)CCN(Cc1ncn[nH]1)C2)c1ccccc1-c1ccc(C(F)(F)F)cc1 ?
9.48

====

testTarget: purified bovine liver MTP (Bos taurus)
Construct: purified bovine liver MTP; from tissue; host or cells: bovine liver
Sequence (P55156 19-887 limits assumed): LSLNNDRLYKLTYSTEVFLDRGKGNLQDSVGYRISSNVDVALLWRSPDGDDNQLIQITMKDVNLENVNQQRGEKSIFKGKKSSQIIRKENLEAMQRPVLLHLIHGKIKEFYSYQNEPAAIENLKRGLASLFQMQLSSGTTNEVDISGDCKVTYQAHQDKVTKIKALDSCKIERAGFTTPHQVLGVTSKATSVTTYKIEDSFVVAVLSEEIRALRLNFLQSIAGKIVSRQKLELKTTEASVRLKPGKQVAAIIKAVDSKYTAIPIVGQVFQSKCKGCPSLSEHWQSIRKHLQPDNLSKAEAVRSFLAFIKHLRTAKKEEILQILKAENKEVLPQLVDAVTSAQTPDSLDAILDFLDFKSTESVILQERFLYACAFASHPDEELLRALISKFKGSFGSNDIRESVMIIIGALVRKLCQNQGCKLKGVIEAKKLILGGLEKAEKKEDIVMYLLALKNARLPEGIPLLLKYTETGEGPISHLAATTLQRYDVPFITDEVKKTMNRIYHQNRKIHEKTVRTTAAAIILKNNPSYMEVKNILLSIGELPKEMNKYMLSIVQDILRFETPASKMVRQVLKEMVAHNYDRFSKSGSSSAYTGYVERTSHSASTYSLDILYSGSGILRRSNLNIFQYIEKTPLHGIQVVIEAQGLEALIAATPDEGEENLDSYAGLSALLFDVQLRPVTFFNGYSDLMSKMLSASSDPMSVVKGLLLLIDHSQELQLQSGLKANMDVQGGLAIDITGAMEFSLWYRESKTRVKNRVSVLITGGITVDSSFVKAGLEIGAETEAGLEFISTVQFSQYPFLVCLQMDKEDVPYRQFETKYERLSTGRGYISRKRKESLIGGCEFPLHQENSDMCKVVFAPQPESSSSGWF
Sequence (P05307 21-510 partner): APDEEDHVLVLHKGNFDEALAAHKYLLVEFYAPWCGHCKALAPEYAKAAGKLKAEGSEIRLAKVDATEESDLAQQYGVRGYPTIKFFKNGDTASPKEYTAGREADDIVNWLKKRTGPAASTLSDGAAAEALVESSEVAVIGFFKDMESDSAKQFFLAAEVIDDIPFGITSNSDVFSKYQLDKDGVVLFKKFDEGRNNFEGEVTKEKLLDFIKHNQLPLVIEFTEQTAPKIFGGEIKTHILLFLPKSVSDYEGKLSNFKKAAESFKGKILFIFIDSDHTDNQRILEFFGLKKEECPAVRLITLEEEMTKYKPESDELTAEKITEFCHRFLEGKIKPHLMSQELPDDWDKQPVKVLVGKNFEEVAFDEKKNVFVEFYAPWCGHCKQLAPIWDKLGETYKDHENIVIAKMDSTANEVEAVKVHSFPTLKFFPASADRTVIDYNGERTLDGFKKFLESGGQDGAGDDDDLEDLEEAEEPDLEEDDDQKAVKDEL
experimentSummary: Fluorescence phospholipid (NBD-PE) transfer activity assay of MTP
Assay type: biochemical
conditionsUsed: dose-dependent inhibition, FIG. 5B
property: pIC50
Give only the number. pIC50 is defined as minus log10 of concentration in molar units.

Give its pIC50 value. Item: O=C(Nc1ccc2c(c1)CCN(Cc1ncn[nH]1)C2)c1ccccc1-c1ccc(C(F)(F)F)cc1
8.03
